# measured_on: VLP2 (virus-like particles, capsid protein particles of AAV serotype 2) (AAV serotype 2 (AAV2)) (UniProt P03135)
# Sequence (P03135 whole entry): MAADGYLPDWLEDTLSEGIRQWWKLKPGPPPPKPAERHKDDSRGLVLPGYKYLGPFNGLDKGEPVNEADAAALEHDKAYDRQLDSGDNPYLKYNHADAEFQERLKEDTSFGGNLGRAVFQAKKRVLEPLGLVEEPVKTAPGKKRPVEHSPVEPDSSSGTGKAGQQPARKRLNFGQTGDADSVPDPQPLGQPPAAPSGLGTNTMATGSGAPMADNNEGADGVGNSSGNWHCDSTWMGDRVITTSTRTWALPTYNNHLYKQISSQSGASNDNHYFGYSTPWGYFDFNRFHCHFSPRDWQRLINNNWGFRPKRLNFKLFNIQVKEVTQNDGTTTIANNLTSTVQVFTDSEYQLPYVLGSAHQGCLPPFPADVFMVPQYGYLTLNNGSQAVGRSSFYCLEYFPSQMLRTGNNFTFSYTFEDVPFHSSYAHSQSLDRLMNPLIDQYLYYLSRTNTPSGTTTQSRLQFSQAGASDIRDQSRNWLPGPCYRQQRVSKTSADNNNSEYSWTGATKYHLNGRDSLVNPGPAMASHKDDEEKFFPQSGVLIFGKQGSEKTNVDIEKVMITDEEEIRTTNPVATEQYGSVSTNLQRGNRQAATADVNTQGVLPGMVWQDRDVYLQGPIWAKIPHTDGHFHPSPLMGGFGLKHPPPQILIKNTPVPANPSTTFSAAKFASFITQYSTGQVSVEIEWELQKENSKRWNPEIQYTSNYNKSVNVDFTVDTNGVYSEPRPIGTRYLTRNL
# test_protocol: ELISA on immobilised VLP2 (purified protein, 5 µg/mL); A450 after 1:1 1 M NaOH with 1 mM CaCl2, 30°C, 45 min divided by A450 at 0 time

[
  {
    "binder": "AVR27d (AVR25c with K455R, T474R) (receptor) MGSAGESDQITLPKHEAQLKVYVLLVPPKGEASTYDWQLITHPRDYSGEMEGEHSQILKLSNLTPGLYEYRAVVEGQNAHSEGYVNVTVEPGPRKNRPPIAIVSPQFQEISLPTTSAVIDGSQSTDDDKIVQYHWEELKGPLREERISEDTPILKLSNLVPGNYRFRLTVVDTDGATDSTTADLTVNKAVDHHHHHH",
    "Remaining activity [%]": "5.11%"
  },
  {
    "binder": "AVR29d (AVR25c with I366F, V394A, K455R, V499I) (receptor) MGSAGESDQITLPKHEAQLKVYVLLVPPKGEASTYDWQLITHPRDYSGEMEGEHSQFLKLSNLTPGLYEYRAVVEGQNAHSEGYANVTVEPGPRKNRPPIAIVSPQFQEISLPTTSAVIDGSQSTDDDKIVQYHWEELKGPLREERISEDTPILKLSNLVPGNYTFRLTVVDTDGATDSTTADLTVNKAIDHHHHHH",
    "Remaining activity [%]": "4.47%"
  }
]
